Entry source: patent US20250011365A1

assay: Study on pharmacokinetic properties in rats after intravenous injection; details: SD, rat, in vivo, 5 mg/kg
Numbered stars: 1 amine (or outer) side, 2 acyl side, 3 side chain; on linkers, the order of the positions; unused ones are H or OH. Bridge positions count the residues as written; N and C are the ends. Square brackets hold non-standard residues; d marks the D form. Peptide text beside a SMILES is read from it. * marks the point of attachment. Orn(4R-OH,5R-OCH2CH2NMe3+) = C[N+](C)(C)CCO[C@@H](N[*:3])[C@H](O)C[C@H](N[*:1])C(=O)[*:2]; pTerphenylCO(4''-OnC5H11) = CCCCCOc1ccc(-c2ccc(-c3ccc(C(=O)*)cc3)cc2)cc1; hTyr(3S-OH,4S-OH) = N[C@H](C(=O)O)[C@H](O)[C@@H](O)c1ccc(O)cc1; Pro(3S-OH,4S-Me) = C[C@H]1CN[C@H](C(=O)O)[C@H]1O; Hyp = O=C(O)[C@@H]1C[C@@H](O)CN1
observedProperty: Cmax (ng/mL)
// return numeric value only (unit: ng/mL, not printed)

Using known records, supply Cmax for CCCCCOc1ccc(-c2ccc(-c3ccc(C(=O)N[C@H]4C[C@@H](O)[C@@H](OCC[N+](C)(C)C)NC(=O)[C@@H]5[C@@H](O)[C@@H](C)CN5C(=O)[C@H]([C@@H](C)O)NC(=O)[C@H]([C@H](O)[C@@H](O)c5ccc(O)cc5)NC(=O)[C@@H]5C[C@@H](O)CN5C(=O)[C@H]([C@@H](C)O)NC4=O)cc3)cc2)cc1 [Rezafungin, rezafungin, reference compound] ({pTerphenylCO(4''-OnC5H11)}-[Orn(4R-OH,5R-OCH2CH2NMe3+)]T[Hyp][hTyr(3S-OH,4S-OH)]T[Pro(3S-OH,4S-Me)]; lactam 1-C) 4750

###

experiment: in vivo; details: SD, rat, iv, 2.5 mg/kg
Numbered stars: 1 amine (or outer) side, 2 acyl side, 3 side chain; on linkers, the order of the positions; unused ones are H or OH. Bridge positions count the residues as written; N and C are the ends. Square brackets hold non-standard residues; d marks the D form. Peptide text beside a SMILES is read from it. * marks the point of attachment. Orn(4R-OH,5R-OCH2CH2NMe3+) = C[N+](C)(C)CCO[C@@H](N[*:3])[C@H](O)C[C@H](N[*:1])C(=O)[*:2]; hTyr(3S-OH,4S-OH) = N[C@H](C(=O)O)[C@H](O)[C@@H](O)c1ccc(O)cc1; X1 = CCCCCOc1cc(F)c(C#Cc2ccc3cc(C(=O)*)ccc3c2)cc1F; Pro(3S-OH,4S-Me) = C[C@H]1CN[C@H](C(=O)O)[C@H]1O; Hyp = O=C(O)[C@@H]1C[C@@H](O)CN1
observedProperty: Vd (L/kg)
// return numeric value only (unit: L/kg, not printed)

Using known records, supply Vd for CCCCCOc1cc(F)c(C#Cc2ccc3cc(C(=O)N[C@H]4C[C@@H](O)[C@@H](OCC[N+](C)(C)C)NC(=O)[C@@H]5[C@@H](O)[C@@H](C)CN5C(=O)[C@H]([C@@H](C)O)NC(=O)[C@H]([C@H](O)[C@@H](O)c5ccc(O)cc5)NC(=O)[C@@H]5C[C@@H](O)CN5C(=O)[C@H]([C@@H](C)O)NC4=O)ccc3c2)cc1F [Example 16] (X1-[Orn(4R-OH,5R-OCH2CH2NMe3+)]T[Hyp][hTyr(3S-OH,4S-OH)]T[Pro(3S-OH,4S-Me)]; lactam 1-C) 0.49
